Tested on: UO-31 renal
assay: NCI-60 one-dose screen, 48 h
protocol-conditions: 10 µM unless noted
Compounds without any hit were thinned out: in the full panel of roughly 83,000, 20% have a hit. The source made the active and inactive calls. The calls were made as follows: active = growth percent below 10; inactive = the rest.
Outcome codes: Y (active), N (inactive)

{"columns": ["molecule", "category-label"],
 "data": [
  ["COc1cc(-c2nc3sc4c(c3c(=O)[nH]2)CCCCCC4)cc(OC)c1OC", "N"],
  ["COc1ccc(C(=O)/C=C/c2cccc(Nc3ccnc4cc(Cl)ccc34)c2)cc1", "Y"],
  ["CCSCC1CC(O)(c2ccccc2)C(c2ccccc2)C(c2ccc(Cl)cc2)O1 (stereo not given)", "N"],
  ["c1ccc(Nc2ccc(Nc3nc(-c4ccccc4)nc4ccccc34)cc2)cc1", "N"],
  ["O=C(COc1cccc(/C=C2\\Oc3ccc4ccccc4c3C2=O)c1)c1ccc(Cl)cc1", "Y"],
  ["COc1ccc(OC)c(CCn2cncc2-c2c[nH]c3cc(Br)ccc23)c1", "N"],
  ["O=C1c2cccc3c([N+](=O)[O-])ccc(c23)C(=O)N1CCCCl", "Y"],
  ["O=C(N/N=C/c1cccc(O)c1)c1ccc(C(F)(F)F)nc1Nc1cccc(C(F)(F)F)c1", "Y"],
  ["O=CN1N=C(c2ccc(Cl)cc2)CC1c1cccc(Nc2ccnc3cc(Cl)ccc23)c1 (stereo not given)", "N"],
  ["COc1ccc(-c2cc(-c3cccnc3)nc3sc(C(=O)Nc4ccccc4)c(N)c23)cc1OC", "N"]
]}

###

Tested on: PC-3 prostate
assay: NCI-60 one-dose screen, 48 h
protocol-conditions: 10 µM unless noted
Experimental: Growth inhibition of the PC-3 human tumor cell line is measured as a screen for anti-cancer activity. Cells are grown in 96 well plates and exposed to the test compound for 48 hours. Compounds are tested at a single concentration, which is 10^-5 M for most compounds. The reported endpoint is percent growth (GI% or GIPRCNT), where numbers from 0 - 100% represent growth inhibition, and numbers from -100% - 0 represent cell death. For example, a value of 40 represents 60% growth inhibition. […]
This is part of a sample that, as a whole, favours compounds with a hit. Of some 83,000 tested, about 20% had one in any assay. Activity calls are given as the source filed them. Rule for the calls: active = growth percent below 10; inactive = the rest.
Outcome codes: active, inactive

{"columns": ["molecule", "category-label"],
 "data": [
  ["CCCCCCCCCCCCCCCCCC1=NC(C)(CO)CO1 (configuration not stated)", "inactive"],
  ["COc1cc(C2CC(c3ccc(C)cc3)=NN2C=O)ccc1OCCN(C)C (configuration not stated)", "inactive"],
  ["COc1ccc2c(=O)c(OC)c(-c3cc(OC)c(OC)c(OC)c3)oc2c1", "inactive"],
  ["Cc1cc(=O)oc2cc(OCCn3c(C)nn(-c4ccc(Cl)cc4)c3=O)ccc12", "inactive"],
  ["[N-]=[N+]=NCc1cccc(/C(O)=C/C(=O)C(=O)O)c1", "inactive"],
  ["CC(=O)N1N=C(c2ccc3c(c2)OCO3)CC1c1c(C)nn(-c2ccccc2)c1N(C)Cc1ccccc1 (configuration not stated)", "inactive"],
  ["O=C1NCCc2c1noc2-c1ccccc1", "inactive"],
  ["CCCCCc1c(C)[nH]c(/C=C2\\N=C(c3ccc[nH]3)C=C2OCc2ccccc2)c1C", "active"],
  ["O=C1c2cccc(NCCN=Cc3ccccc3O)c2C(=O)c2c(NCCN=Cc3ccccc3O)cccc21", "inactive"],
  ["Clc1ccc(C2c3ccccc3-c3nccn32)c(Cl)c1 (configuration not stated)", "inactive"],
  ["CCOc1cc(/C=C/C(=O)CC(=O)/C=C/c2ccc(OC(=O)CNCCN(CC)CC)c(OCC)c2)ccc1OC(=O)CNCCN(CC)CC", "active"],
  ["O=C(Oc1cccc2ccccc12)c1ccccc1C(=O)c1ccccc1", "inactive"],
  ["Fc1ccccc1C1c2ccccc2-c2nccn21 (configuration not stated)", "inactive"],
  ["CCOC(=O)C1=CCC(n2cc(C)c(=O)[nH]c2=O)O1 (configuration not stated)", "inactive"],
  ["O=C(CC(C(=O)c1ccccc1)N1CCN(Cc2ccccc2)CC1)c1ccccc1 (configuration not stated)", "inactive"],
  ["Fc1ccc(-c2nn3c(-c4cc(C(F)(F)F)cc(C(F)(F)F)c4)nnc3s2)cc1", "inactive"],
  ["CC(=O)c1ccccc1NC(=O)C(C)(c1ccccc1)c1ccccc1", "inactive"],
  ["Nc1ncnc2c1CN(Cc1ccccc1)CC2", "inactive"],
  ["Clc1ccc2[nH]cc(-c3cncn3CCc3ccccc3)c2c1", "inactive"],
  ["COC(=O)C1=CCC(n2cnc3c(N)ncnc32)O1 (configuration not stated)", "inactive"],
  ["COc1ccc(C2=NN(C(C)=O)C(c3cccc(Nc4ccnc5cc(Cl)ccc45)c3)C2)cc1 (configuration not stated)", "inactive"],
  ["COc1cccc(-c2nc(-c3ccc(N)cc3)co2)c1", "inactive"]
]}
